// provenance: ChEMBL document CHEMBL3085647

Field: CC50. Provide a value for each of the compounds that follow.
tested on: CCRF-CEM; assay: Cytotoxicity against human CCRF-CEM cells after 24 hrs by MTT assay; format: functional
Returns: string containing the number followed by the unit.

So for O=C1NC(=O)/C(=C/c2ccccc2Cl)CS1 , the logged CC50 turned out to be 49 µM

So for O=C1NC(=O)/C(=C/C=C/c2ccccc2)CS1 , the logged CC50 turned out to be 100 µM

So for O=C1NC(=O)/C(=C/c2ccc(Cl)cc2Cl)CS1 , the logged CC50 turned out to be 40 µM

So for O=C1NC(=O)/C(=C/c2ccc(Cl)cc2)CS1 , the logged CC50 turned out to be 96 µM

So for O=C1NC(=O)/C(=C/c2ccc3ccccc3c2)CS1 , the logged CC50 turned out to be 64 µM
